B1: HDV Ribozyme (parent)
chain: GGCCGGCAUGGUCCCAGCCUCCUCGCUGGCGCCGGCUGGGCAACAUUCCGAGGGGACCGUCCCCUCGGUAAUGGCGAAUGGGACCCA

Variants of: B1
ASSAY_EXPLANATION: self-cleavage, relative activity (ratio to wild type); higher = more cleavage; co-transcriptional
Quick list: self-cleavage per entry.
OUTCOME_MEASURE: self-cleavage

- GGCCGGCAUGGUCCCAGCCUCCUCGCUGGCGCCGGCUUGGCAACAUUCCGUGGGGACCGUCCCCUCGGUAAUGGCGAAUGGGACCCA [G38U A51U]: 0.308
- GGCCGGCAUGGUCCCAGCCUCCUCGCUGGCGCCGGCUGGGCAACAUUCCGAGGGGACCGUCCCCUCGGUAAUGGGGAAUGGGACCCC [C75G A87C]: 0.073
- GGCCGGCAUGGUCCCAGCCUCCUCGCUGGAGCCGGCUGGGCAACAUUCCGGGGGGACCGUCCCCUCGGUAAUGGCGAAUGGGACCCA [C30A A51G]: 0.361
- GGCCGGCAUGGUCCCCGCCUCCUCGCUGGCGUCGGCUGGGCAACAUUCCGAGGGGACCGUCCCCUCGGUAAUGGCGAAUGGGACCCA [A16C C32U]: 0.332
- GGCCGGCAUGGUCCCAGCCUCCUCGCUGGCGCCGGCUGGGCAACAUUCCGACGGGACCGUCCCCUCGGUAAUGGCGAAUGGGAUCCA [G52C C84U]: 0.537
- CGCCGGCAUGGUCCCAGCCUCCUCGCUGGUGCCGGCUGGGCAACAUUCCGAGGGGACCGUCCCCUCGGUAAUGGCGAAUGGGACCCA [G1C C30U]: 0.0755
- GGCCGGCAUGGUCCCAGCCUCAUCGCUGGCGCCUGCUGGGCAACAUUCCGAGGGGACCGUCCCCUCGGUAAUGGCGAAUGGGACCCA [C22A G34U]: 0.0536
- GGCCGGCAUGGUCCCAGCCUGCUCGCUGGCGCCGGCUGGGCAACAUUCCGAGGGGACCCUCCCCUCGGUAAUGGCGAAUGGGACCCA [C21G G59C]: 0.106
- GGCCGGCAUGGUCCCAGCGUCCUCGCUGGCGCCGGCUGGGCAACAUUCCGAGGGGACCGUCCCCUCGGUAAUGGCGAAUGGGAACCA [C19G C84A]: 0.0898
- GGCCGGCAUGGUCCCAGCCUCCUCGCUGGCUCCGGCUGGGCAACAUUCCGAGCGGACCGUCCCCUCGGUAAUGGCGAAUGGGACCCA [G31U G53C]: 0.563

Origin of the recorded values: the RNAGym collection of RNA variant scans (doi:10.7554/elife.80360)
